Below is a list of entries, each paired with its recorded pIC50 value.
# TEST SYSTEM: HDAC6 (Homo sapiens, UniProt Q9UBN7)
# Sequence (Q9UBN7 1-1215): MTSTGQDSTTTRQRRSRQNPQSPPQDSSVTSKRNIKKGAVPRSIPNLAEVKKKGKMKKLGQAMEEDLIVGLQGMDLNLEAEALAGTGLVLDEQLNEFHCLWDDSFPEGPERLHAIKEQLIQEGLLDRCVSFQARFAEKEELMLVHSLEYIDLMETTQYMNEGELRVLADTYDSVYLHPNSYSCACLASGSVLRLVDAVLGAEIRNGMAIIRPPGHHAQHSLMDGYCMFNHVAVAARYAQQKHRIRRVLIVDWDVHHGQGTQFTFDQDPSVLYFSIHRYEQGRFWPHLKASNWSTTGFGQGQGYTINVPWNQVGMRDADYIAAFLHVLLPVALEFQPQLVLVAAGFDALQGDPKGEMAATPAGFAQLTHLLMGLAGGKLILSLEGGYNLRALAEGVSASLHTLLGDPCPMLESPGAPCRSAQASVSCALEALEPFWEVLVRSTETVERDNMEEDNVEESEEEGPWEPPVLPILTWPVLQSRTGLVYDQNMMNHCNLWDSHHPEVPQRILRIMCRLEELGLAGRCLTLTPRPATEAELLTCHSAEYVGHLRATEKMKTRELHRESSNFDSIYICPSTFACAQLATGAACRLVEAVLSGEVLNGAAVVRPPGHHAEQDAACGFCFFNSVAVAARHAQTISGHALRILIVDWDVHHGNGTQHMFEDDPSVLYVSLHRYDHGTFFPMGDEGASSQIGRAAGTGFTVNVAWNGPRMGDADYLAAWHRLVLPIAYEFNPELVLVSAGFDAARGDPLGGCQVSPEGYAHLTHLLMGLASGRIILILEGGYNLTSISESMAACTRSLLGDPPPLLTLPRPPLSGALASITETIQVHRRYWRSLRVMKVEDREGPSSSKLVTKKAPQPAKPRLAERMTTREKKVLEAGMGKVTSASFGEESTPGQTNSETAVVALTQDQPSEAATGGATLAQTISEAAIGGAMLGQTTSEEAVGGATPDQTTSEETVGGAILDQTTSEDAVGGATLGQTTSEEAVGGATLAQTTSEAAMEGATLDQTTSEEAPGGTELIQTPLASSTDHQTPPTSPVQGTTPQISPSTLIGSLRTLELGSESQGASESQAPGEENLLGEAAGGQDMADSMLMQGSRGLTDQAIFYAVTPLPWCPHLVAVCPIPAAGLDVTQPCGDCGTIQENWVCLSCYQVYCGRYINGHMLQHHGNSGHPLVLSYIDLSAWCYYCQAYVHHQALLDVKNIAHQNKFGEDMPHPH
# PROCEDURE DETAILS: HDAC-Glo inhibitor testing with recombinant HDAC6
pIC50: −log10 of the molar value.

Answered cases to consult:
- STRUCTURE SMILES: "Cn1ccnc1C(=O)/C=C/c1ccc(CC(=O)Nc2cc(F)c(F)c(F)c2)cc1"
  REPORTED ENDPOINT: "pIC50"
  MEASURED VALUE: "< 3.70"
- STRUCTURE SMILES: "Cn1ccnc1C(=O)/C=C/c1ccc(CC(=O)Nc2ccc(Br)cc2)cc1"
  REPORTED ENDPOINT: "pIC50"
  MEASURED VALUE: "< 4.00"
- STRUCTURE SMILES: "Cn1ccnc1C(=O)/C=C/c1ccc(CC(=O)Nc2cc(C(F)(F)F)cc(C(F)(F)F)c2)cc1"
  REPORTED ENDPOINT: "pIC50"
  MEASURED VALUE: "< 4.00"
- STRUCTURE SMILES: "O=C(Cc1ccc(/C=C/C(=O)c2ncc[nH]2)cc1)Nc1ccc(Cl)cc1"
  REPORTED ENDPOINT: "pIC50"
  MEASURED VALUE: "< 4.00"
- STRUCTURE SMILES: "Cn1ccnc1C(=O)/C=C/c1ccc(CC(=O)Nc2ccc(S(F)(F)(F)(F)F)cc2)cc1"
  REPORTED ENDPOINT: "pIC50"
  MEASURED VALUE: "< 3.70"

## Task Entry C#Cc1ccc(NC(=O)Cc2ccc(/C=C/C(=O)c3nccn3C)cc2)cc1 : reported pIC50 = ?
## Result < 4.00

## Task Entry Cn1ccnc1C(=O)/C=C/c1ccc(CC(=O)Nc2c(F)c(F)c(F)c(F)c2F)cc1 : reported pIC50 = ?
## Result 5.07

* * *

# TEST SYSTEM: HDAC2 (Homo sapiens)
# Sequence (Q92769 whole entry): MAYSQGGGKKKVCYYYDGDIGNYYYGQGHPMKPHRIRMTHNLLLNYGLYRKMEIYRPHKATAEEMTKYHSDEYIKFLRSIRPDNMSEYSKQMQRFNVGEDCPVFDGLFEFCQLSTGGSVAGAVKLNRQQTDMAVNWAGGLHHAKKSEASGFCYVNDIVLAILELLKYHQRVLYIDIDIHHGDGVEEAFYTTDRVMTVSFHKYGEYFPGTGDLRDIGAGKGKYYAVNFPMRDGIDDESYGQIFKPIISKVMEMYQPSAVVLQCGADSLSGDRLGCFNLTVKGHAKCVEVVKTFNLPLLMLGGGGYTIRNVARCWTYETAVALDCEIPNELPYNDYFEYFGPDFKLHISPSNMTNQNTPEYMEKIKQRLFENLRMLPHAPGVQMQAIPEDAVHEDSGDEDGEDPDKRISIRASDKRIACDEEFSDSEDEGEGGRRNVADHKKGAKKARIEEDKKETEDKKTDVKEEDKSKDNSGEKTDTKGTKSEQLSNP
# PROCEDURE DETAILS: HDAC-Glo inhibitor testing with recombinant HDAC2
pIC50: −log10 of the molar value.
REPORTED ENDPOINT: pIC50

Answered cases to consult:
- COMPOUND: "Cn1ccnc1C(=O)/C=C/c1ccc(CC(=O)Nc2cc(F)c(F)c(F)c2)cc1 [IPE-24]"
  REPORTED ENDPOINT: "pIC50"
  MEASURED VALUE: "< 3.70"
- COMPOUND: "O=C(Cc1ccc(/C=C/C(=O)c2ncc[nH]2)cc1)Nc1ccc(Cl)cc1 [IPE-8]"
  REPORTED ENDPOINT: "pIC50"
  MEASURED VALUE: "< 4.00"
- COMPOUND: "Cn1ccnc1C(=O)/C=C/c1ccc(CC(=O)Nc2ccc(S(F)(F)(F)(F)F)cc2)cc1 [IPE-22]"
  REPORTED ENDPOINT: "pIC50"
  MEASURED VALUE: "< 3.70"

Let us move to another entry and its pIC50.
## Task Entry Cn1ccnc1C(=O)/C=C/c1ccc(CC(=O)Nc2cc(C(F)(F)F)cc(C(F)(F)F)c2)cc1 [IPE-26] : reported pIC50 = ?
## Result < 4.00

* * *

# TEST SYSTEM: HDAC1 (Homo sapiens, UniProt Q13547)
# Sequence (Q13547 whole entry): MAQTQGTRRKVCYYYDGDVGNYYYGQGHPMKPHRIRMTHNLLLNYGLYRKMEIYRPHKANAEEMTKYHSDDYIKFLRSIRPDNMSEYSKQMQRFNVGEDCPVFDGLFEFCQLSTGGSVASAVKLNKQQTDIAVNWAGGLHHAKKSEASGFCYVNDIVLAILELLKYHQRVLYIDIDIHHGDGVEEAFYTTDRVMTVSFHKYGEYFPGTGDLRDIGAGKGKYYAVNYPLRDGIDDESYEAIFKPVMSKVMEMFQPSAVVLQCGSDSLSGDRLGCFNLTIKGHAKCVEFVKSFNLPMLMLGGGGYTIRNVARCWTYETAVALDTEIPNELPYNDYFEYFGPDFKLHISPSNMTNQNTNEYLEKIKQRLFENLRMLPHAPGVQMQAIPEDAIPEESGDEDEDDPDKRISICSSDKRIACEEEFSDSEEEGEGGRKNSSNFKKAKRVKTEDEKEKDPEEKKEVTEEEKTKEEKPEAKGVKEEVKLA
# PROCEDURE DETAILS: HDAC-Glo inhibitor testing with recombinant HDAC1
Below is a list of entries, each paired with its recorded IC50 value.

- STRUCTURE SMILES: "Cn1ccnc1C(=O)/C=C/c1ccc(CC(=O)Nc2ccc(S(F)(F)(F)(F)F)cc2)cc1"
  MEASURED VALUE: "> 200 µM"

## Task Entry Cn1ccnc1C(=O)/C=C/c1ccc(CC(=O)Nc2cc(F)c(F)c(F)c2)cc1 : reported IC50 = ?
## Result > 200 µM

## Task Entry C#Cc1ccc(NC(=O)Cc2ccc(/C=C/C(=O)c3nccn3C)cc2)cc1 : reported IC50 = ?
## Result > 100 µM

## Task Entry Cn1ccnc1C(=O)/C=C/c1ccc(CC(=O)Nc2c(F)c(F)c(F)c(F)c2F)cc1 : reported IC50 = ?
## Result 12 µM

## Task Entry O=C(Cc1ccc(/C=C/C(=O)c2ncc[nH]2)cc1)Nc1ccc(Cl)cc1 : reported IC50 = ?
## Result > 100 µM

## Task Entry Cn1ccnc1C(=O)/C=C/c1ccc(CC(=O)Nc2ccc(Br)cc2)cc1 : reported IC50 = ?
## Result > 100 µM

## Task Entry Cn1ccnc1C(=O)/C=C/c1ccc(CC(=O)Nc2cc(C(F)(F)F)cc(C(F)(F)F)c2)cc1 : reported IC50 = ?
## Result > 200 µM

* * *

# Test system: HCT 116 cells
# PROCEDURE DETAILS: MTS reduction assay, antiproliferative activity on HCT 116
# Assay type: cell-based
# TEST CONTEXT: Homo sapiens, HCT-116, 96 h
REPORTED ENDPOINT: GI50 (µM)
Kindly answer with a numeric value in µM, unit omitted.

Answered cases to consult:
- STRUCTURE SMILES: "O=C(Cc1ccc(/C=C/C(=O)c2ncc[nH]2)cc1)Nc1ccc(Cl)cc1"
  MEASURED VALUE: 5.14
- STRUCTURE SMILES: "O=C(Cc1ccc(/C=C/C(=O)c2ncc[nH]2)cc1)Nc1ccc(F)cc1"
  MEASURED VALUE: 6.95
- STRUCTURE SMILES: "Cc1ccc(NC(=O)Cc2ccc(/C=C/C(=O)c3ncc[nH]3)cc2)cc1"
  MEASURED VALUE: 6.85
- STRUCTURE SMILES: "Cn1ccnc1C(=O)/C=C/c1ccc(CC(=O)Nc2ccccc2)cc1"
  MEASURED VALUE: 5.91

Let us move to another entry and its GI50.
## Task Entry Cn1ccnc1C(=O)/C=C/c1ccc(CC(=O)Nc2ccc(F)cc2)cc1 : reported GI50 = ?
## Result 6.56

* * *

# TEST SYSTEM: HDAC3 (Homo sapiens, UniProt O15379)
# Sequence (O15379 whole entry): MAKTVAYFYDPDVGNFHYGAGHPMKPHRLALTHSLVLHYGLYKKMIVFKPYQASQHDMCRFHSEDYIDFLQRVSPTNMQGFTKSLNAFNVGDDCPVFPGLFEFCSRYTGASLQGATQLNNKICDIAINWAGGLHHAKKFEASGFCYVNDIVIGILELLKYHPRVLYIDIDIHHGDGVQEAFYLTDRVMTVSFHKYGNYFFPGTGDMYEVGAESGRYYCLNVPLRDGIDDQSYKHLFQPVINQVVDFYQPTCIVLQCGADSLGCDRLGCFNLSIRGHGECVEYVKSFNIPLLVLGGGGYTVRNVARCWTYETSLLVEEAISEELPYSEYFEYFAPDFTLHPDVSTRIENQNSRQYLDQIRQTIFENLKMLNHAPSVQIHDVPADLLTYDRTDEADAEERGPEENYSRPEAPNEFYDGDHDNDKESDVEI
# Sequence (Q9Y618 395-489 partner limits assumed): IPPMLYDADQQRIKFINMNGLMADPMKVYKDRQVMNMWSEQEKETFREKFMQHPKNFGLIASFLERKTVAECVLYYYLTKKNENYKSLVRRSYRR
# PROCEDURE DETAILS: HDAC-Glo inhibitor testing with recombinant HDAC3
# Assay type: biochemical
REPORTED ENDPOINT: IC50

## Task State its IC50 on HDAC3 (Homo sapiens, UniProt O15379): Cn1ccnc1C(=O)/C=C/c1ccc(CC(=O)Nc2ccc(S(F)(F)(F)(F)F)cc2)cc1
## Result > 200 µM

## Task State its IC50 on HDAC3 (Homo sapiens, UniProt O15379): Cn1ccnc1C(=O)/C=C/c1ccc(CC(=O)Nc2c(F)c(F)c(F)c(F)c2F)cc1
## Result 16 µM

## Task State its IC50 on HDAC3 (Homo sapiens, UniProt O15379): Cn1ccnc1C(=O)/C=C/c1ccc(CC(=O)Nc2cc(F)c(F)c(F)c2)cc1
## Result > 200 µM

## Task State its IC50 on HDAC3 (Homo sapiens, UniProt O15379): Cn1ccnc1C(=O)/C=C/c1ccc(CC(=O)Nc2cc(C(F)(F)F)cc(C(F)(F)F)c2)cc1
## Result > 200 µM

## Task State its IC50 on HDAC3 (Homo sapiens, UniProt O15379): C#Cc1ccc(NC(=O)Cc2ccc(/C=C/C(=O)c3nccn3C)cc2)cc1
## Result > 100 µM

## Task State its IC50 on HDAC3 (Homo sapiens, UniProt O15379): Cn1ccnc1C(=O)/C=C/c1ccc(CC(=O)Nc2ccc(Br)cc2)cc1
## Result > 100 µM
